Test system: WEEV California
Test: microbe, parasite or virus in culture
Format: cell-based
Details: Western equine encephalitis virus, Vero 76, 48 h, read-out: WEEV California EC50 nM
QUANTITY_MEASURED: EC50

Using known records, supply EC50 for COc1ccc(-n2c(C3CCCN3)nc3c(-c4ccnc(C)c4)cc(C#N)cc3c2=O)cc1F (stereo not shown) 1 to 50 nM

Using known records, supply EC50 for COc1ccc(-n2c([C@H]3CCNC3)nc3c(C)cc([N+](=O)[O-])cc3c2=O)cc1F 51 to 150 nM

* * *

Tested on: WEEV California
Assay: microbe, parasite or virus in culture
Format: cell-based
Details: Western equine encephalitis virus, Vero 76, 48 h, read-out: WEEV California EC50 nM
QUANTITY_MEASURED: EC50

COMPOUND	QUANTITY_MEASURED	RESULT
COc1ccc(-n2c([C@@H]3C[C@@H](F)CN3)nc3c(C)cc([N+](=O)[O-])cc3c2=O)cc1F	EC50	> 1000 nM
O=c1c2cc([N+](=O)[O-])ccc2nc([C@H]2CCCN2)n1-c1ccc(OC(F)(F)F)cc1	EC50	> 1000 nM
COc1ccc(-n2c(C3CCCN3)nc3c(-c4ccc(OC(F)(F)F)cc4)cc(C#N)cc3c2=O)cc1F (stereo not drawn)	EC50	1 to 50 nM

Using known records, supply EC50 for N#Cc1ccccc1-n1c([C@H]2CCCN2)nc2ccc([N+](=O)[O-])cc2c1=O > 1000 nM

Using known records, supply EC50 for COc1ccc(-n2c(C3CCCN3)nc3c(-c4ccc(O)nc4)cc(C#N)cc3c2=O)cc1F (stereo not drawn) 1 to 50 nM

Using known records, supply EC50 for COc1ccc(-n2c([C@@H]3C[C@@H](F)CN3)nc3c(C)cc([N+](=O)[O-])cc3c2=O)cc1 > 1000 nM

* * *

Below: a set of entries, each annotated with reported EC50.
System: VEEV TC83
Experiment: microbe, parasite or virus in culture
Type: cell-based
Details: Venezuelan equine encephalitis virus, Vero 76, 48 h, read-out: VEEV TC83 EC50 nM

Examples from the recorded data:
MOLECULE	EC50
COc1ccc(-n2c([C@H]3CCCN3)nc3c(C)cc([N+](=O)[O-])cc3c2=O)cc1 [Example 55]	1 to 50 nM
COc1c(F)cc(-n2c(C3CCCN3)nc3c(-c4ccc(C#CC(C)(C)O)cc4)cc(C#N)cc3c2=O)cc1F (stereo not drawn) [Example 170]	51 to 150 nM
Cc1ccc(-n2c([C@H]3CCCN3)nc3ccc([N+](=O)[O-])cc3c2=O)cc1 [Example 37]	1 to 50 nM
COc1ccc(-n2c(C3CCCN3)nc3c(-c4ccc(C#N)nc4)cc(C#N)cc3c2=O)cc1F (stereo not drawn) [Example 126]	1 to 50 nM
COc1ccc(-n2c([C@@H]3CCCN3)nc3ccc(F)c(F)c3c2=O)cc1 [Example 30]	> 1000 nM

Using known records, supply EC50 for COc1ccc(-n2c([C@H]3CCCN3)nc3c(-c4ccc(C)nc4)cc([N+](=O)[O-])cc3c2=O)cc1F [Example 92] 1 to 50 nM

Using known records, supply EC50 for COc1c(F)cc(-n2c(C3C[C@H](F)CN3)nc3c(-c4cc(C)nc(C)c4)cc(C#N)cc3c2=O)cc1F (stereo partly drawn) [Example 160] 51 to 150 nM

Using known records, supply EC50 for O=c1c2cc([N+](=O)[O-])ccc2nc([C@@H]2CCCN2)n1-c1ccc(OC(F)(F)F)cc1 [Example 46] > 1000 nM

* * *

System: VEEV TC83
Assay: microbe, parasite or virus in culture
Format: cell-based
Details: Venezuelan equine encephalitis virus, Vero 76, 48 h, read-out: VEEV TC83 EC50 nM
QUANTITY_MEASURED: EC50

Examples from the recorded data:
STRUCTURE_AS_SMILES	EC50
COc1ccc(-n2c(-c3nccn3C)nc3c(-c4ccc(C)nc4)cc(C#N)cc3c2=O)cc1F	51 to 150 nM
COc1ccc(-n2c([C@H]3C[C@H](F)CN3)nc3c(C)cc([N+](=O)[O-])cc3c2=O)cc1	1 to 50 nM
COc1ccc(-n2c([C@H]3C[C@H](F)CN3)nc3c(-c4cccnc4)cc([N+](=O)[O-])cc3c2=O)cc1	1 to 50 nM

Turning to the following molecule.
Using known records, supply EC50 for COc1ccc(-n2c([C@@H]3CCCN3C)nc3c(C)cc([N+](=O)[O-])cc3c2=O)cc1F 1 to 50 nM

* * *

System: WEEV California
Assay: microbe, parasite or virus in culture
Format: cell-based
Settings: Western equine encephalitis virus, Vero 76, 48 h, read-out: WEEV California EC50 nM
Below: a set of entries, each annotated with reported EC50.

COMPOUND	TEST_SYSTEM	EC50
COc1ccc(-n2c([C@H]3CC(=O)CN3)nc3c(-c4ccc(C)nc4)cc(C#N)cc3c2=O)cc1F	WEEV California	501 to 1000 nM
COc1ccc(-c2cc(C#N)cc3c(=O)n(-c4ccc(OC)c(F)c4)c(C4CCCN4)nc23)cc1F (stereo not shown)	WEEV California	1 to 50 nM
COc1ccc(-n2c([C@@H]3CCCN3C)nc3ccc([N+](=O)[O-])cc3c2=O)cc1	WEEV California	51 to 150 nM
COc1ccc(-n2c(-c3ncco3)nc3c(-c4ccc(C)nc4)cc(C#N)cc3c2=O)cc1F	WEEV California	> 1000 nM
COc1ccc(-n2c([C@H]3CCCN3)nc3ccc([N+](=O)[O-])cc3c2=O)c(F)c1	WEEV California	151 to 500 nM
COc1ccc(-n2c([C@H]3C[C@H](F)CN3)nc3c(C)cc([N+](=O)[O-])cc3c2=O)cc1	WEEV California	51 to 150 nM

Turning to the following compound.
Using known records, supply EC50 for COc1c(F)cc(-n2c(C34CC(CN3)C4)nc3c(-c4ccnc(C)c4)cc(C#N)cc3c2=O)cc1F 51 to 150 nM

* * *

Below: a set of entries, each annotated with reported EC50.
Tested on: WEEV California
Assay: microbe, parasite or virus in culture
Format: cell-based
Details: Western equine encephalitis virus, Vero 76, 48 h, read-out: WEEV California EC50 nM

Examples from the recorded data:
COMPOUND	RESULT
O=c1c2cc([N+](=O)[O-])ccc2nc([C@H]2CCCN2)n1-c1cccc(OC(F)(F)F)c1	> 1000 nM
COc1ccc(-n2c([C@H]3CCCN3C)nc3ccc([N+](=O)[O-])cc3c2=O)cc1	151 to 500 nM

Fill: EC50 (WEEV California) for this compound COc1ccc(-n2c([C@H]3C[C@H](F)CN3)nc3c(-c4ccc(C)nc4)cc(C#N)cc3c2=O)cc1F 51 to 150 nM

Fill: EC50 (WEEV California) for this compound COc1ccc(-n2c([C@@]3(C)CCCN3)nc3c(-c4ccc(C)nc4)cc(C#N)cc3c2=O)cc1F 1 to 50 nM

Fill: EC50 (WEEV California) for this compound COc1cccc(-c2cc(C#N)cc3c(=O)n(-c4ccc(OC)c(F)c4)c(C4CCCN4)nc23)c1 (stereo not drawn) 1 to 50 nM

* * *

Below: a set of entries, each annotated with reported EC50.
Test system: WEEV California
Experiment: microbe, parasite or virus in culture
Format: cell-based
Conditions: Western equine encephalitis virus, Vero 76, 48 h, read-out: WEEV California EC50 nM

Examples from the recorded data:
COMPOUND	EC50
COc1c(F)cc(-n2c(C3CCCN3)nc3c(-c4ccc(C#CCO)cc4)cc(C#N)cc3c2=O)cc1F (stereo not shown)	51 to 150 nM
Cc1ccccc1-n1c([C@H]2CCCN2)nc2ccc([N+](=O)[O-])cc2c1=O	> 1000 nM
COc1c(F)cc(-n2c([C@H]3CCCN3)nc3c(-c4ccc(C(F)(F)F)nc4)cc(C#N)cc3c2=O)cc1F	51 to 150 nM
COc1ccc(-n2c([C@H]3CCCN3C)nc3c(C)cc([N+](=O)[O-])cc3c2=O)cc1	151 to 500 nM
COc1ccc(-n2c(C3CCCN3)nc3c(Cc4ccc(C)nc4)cc(C#N)cc3c2=O)cc1F (stereo not shown)	151 to 500 nM
COc1ccc(-n2c([C@@H]3CC(=O)CN3)nc3c(-c4ccc(C)nc4)cc(C#N)cc3c2=O)cc1F	> 1000 nM

Turning to the following compound.
Using known records, supply EC50 for COc1ccc(-n2c(C3CCCN3)nc3c(-c4cnc(OC)c(OC)c4)cc(C#N)cc3c2=O)cc1F (stereo not shown) 1 to 50 nM

* * *

System: WEEV California
Assay: microbe, parasite or virus in culture
Type: cell-based
Settings: Western equine encephalitis virus, Vero 76, 48 h, read-out: WEEV California EC50 nM
Below: a set of entries, each annotated with reported EC50.

Examples from the recorded data:
COMPOUND	TEST_SYSTEM	EC50
COc1ccc(-n2c(C3CCCN3Cc3ccc(F)cc3)nc3c(C)cc([N+](=O)[O-])cc3c2=O)cc1F (stereo not shown)	WEEV California	151 to 500 nM
N#Cc1cc(-c2ccc(C(F)(F)F)nc2)c2nc([C@H]3CCCN3)n(-c3ccc(O)c(F)c3)c(=O)c2c1	WEEV California	151 to 500 nM

Turning to the following compound.
Using known records, supply EC50 for Cc1ccc(-c2cc(C#N)cc3c(=O)n(-c4ccc(N5CCOCC5)c(F)c4)c(C4CCCN4)nc23)cn1 (stereo not shown) 501 to 1000 nM
